Sourced from patent US4450279A

Experiment: Solubility in organic solvents
Assay type: physicochemical
Conditions: ethyl acetate, organic solvent or mixture; read-out: Solubility, Ethyl acetate
observed-property: solubility (mg/mL)

[a] Cc1ccc2sc3ccccc3c(=O)c2c1
[b] O=c1c2ccccc2sc2ccccc12
[c] CC(C)c1ccc2sc3ccccc3c(=O)c2c1
Query :: Put these in order: smallest solubility first, largest last. List the labels in the requested order.
Result :: b, a, c
